- SYSTEM TESTED: MATE1 (Homo sapiens, UniProt Q96FL8)
- Sequence (Q96FL8 whole entry): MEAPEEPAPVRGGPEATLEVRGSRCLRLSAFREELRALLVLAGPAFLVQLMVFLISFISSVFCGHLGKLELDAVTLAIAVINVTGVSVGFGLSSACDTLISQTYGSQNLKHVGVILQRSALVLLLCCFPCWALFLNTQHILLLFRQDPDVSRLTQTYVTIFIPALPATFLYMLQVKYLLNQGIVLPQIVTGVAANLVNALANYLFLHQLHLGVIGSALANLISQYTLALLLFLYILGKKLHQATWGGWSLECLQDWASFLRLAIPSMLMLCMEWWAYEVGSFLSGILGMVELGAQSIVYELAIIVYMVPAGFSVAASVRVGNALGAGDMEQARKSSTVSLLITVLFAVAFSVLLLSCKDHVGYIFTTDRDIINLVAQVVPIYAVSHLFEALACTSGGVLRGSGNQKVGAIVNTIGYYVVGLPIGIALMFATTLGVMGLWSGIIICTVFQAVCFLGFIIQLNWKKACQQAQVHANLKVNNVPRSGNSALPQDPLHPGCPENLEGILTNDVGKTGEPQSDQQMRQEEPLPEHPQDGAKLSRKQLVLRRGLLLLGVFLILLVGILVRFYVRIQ
RECORDED ENDPOINT: IC50

Value lookup for IC50; key = COC(=O)Nc1c(N)nc(-c2nn(Cc3ccccc3F)c3ncc(F)cc23)nc1N [Vericiguat]
> 10 µM

---

- SYSTEM TESTED: OATP1B1 (Homo sapiens)
- Sequence (Q9Y6L6 whole entry): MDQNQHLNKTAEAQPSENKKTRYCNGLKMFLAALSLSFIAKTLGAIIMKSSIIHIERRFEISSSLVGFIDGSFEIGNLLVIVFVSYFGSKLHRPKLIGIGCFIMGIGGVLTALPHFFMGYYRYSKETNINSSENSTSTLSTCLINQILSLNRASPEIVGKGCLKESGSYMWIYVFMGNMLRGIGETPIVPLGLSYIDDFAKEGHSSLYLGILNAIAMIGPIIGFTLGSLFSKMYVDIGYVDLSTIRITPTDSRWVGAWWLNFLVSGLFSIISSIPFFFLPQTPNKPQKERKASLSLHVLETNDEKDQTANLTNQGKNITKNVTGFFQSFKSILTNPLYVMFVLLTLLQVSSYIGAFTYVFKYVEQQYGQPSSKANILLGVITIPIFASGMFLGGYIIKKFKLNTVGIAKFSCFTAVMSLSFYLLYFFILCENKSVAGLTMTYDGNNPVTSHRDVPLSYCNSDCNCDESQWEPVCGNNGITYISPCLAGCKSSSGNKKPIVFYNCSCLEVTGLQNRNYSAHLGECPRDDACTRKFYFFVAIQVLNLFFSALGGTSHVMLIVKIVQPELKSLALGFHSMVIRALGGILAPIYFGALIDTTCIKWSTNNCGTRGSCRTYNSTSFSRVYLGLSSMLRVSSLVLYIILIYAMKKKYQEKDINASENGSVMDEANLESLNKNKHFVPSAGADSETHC
RECORDED ENDPOINT: IC50

Value lookup for IC50; key = COC(=O)Nc1c(N)nc(-c2nn(Cc3ccccc3F)c3ncc(F)cc23)nc1N [Vericiguat]
~16 µM

---

- SYSTEM TESTED: UGT2B7 (Homo sapiens)
- Sequence (P16662 24-529): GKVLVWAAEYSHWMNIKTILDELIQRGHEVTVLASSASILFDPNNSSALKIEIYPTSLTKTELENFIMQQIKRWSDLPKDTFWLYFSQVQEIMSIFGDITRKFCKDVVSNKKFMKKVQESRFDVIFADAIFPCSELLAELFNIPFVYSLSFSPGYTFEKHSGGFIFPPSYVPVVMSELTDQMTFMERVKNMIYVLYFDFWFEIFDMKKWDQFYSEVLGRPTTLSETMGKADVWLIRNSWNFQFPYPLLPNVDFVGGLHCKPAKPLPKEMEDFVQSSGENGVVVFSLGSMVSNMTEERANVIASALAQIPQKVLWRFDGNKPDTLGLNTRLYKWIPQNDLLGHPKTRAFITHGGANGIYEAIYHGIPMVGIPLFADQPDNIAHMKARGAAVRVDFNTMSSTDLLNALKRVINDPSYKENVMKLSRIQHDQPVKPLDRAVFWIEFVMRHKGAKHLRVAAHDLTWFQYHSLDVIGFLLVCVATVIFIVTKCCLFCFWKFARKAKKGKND
- PROTOCOL TEXT: Inhibitory potency towards UGT isoforms: UGT2B7
pIC50: −log10 of the molar value.
RECORDED ENDPOINT: pIC50

Value lookup for pIC50; key = `COC(=O)Nc1c(N)nc(-c2nn(Cc3ccccc3F)c3ncc(F)cc23)nc1N`
< 4.30

---

- SYSTEM TESTED: OAT1 (Homo sapiens)
- Sequence (Q4U2R8 1-563): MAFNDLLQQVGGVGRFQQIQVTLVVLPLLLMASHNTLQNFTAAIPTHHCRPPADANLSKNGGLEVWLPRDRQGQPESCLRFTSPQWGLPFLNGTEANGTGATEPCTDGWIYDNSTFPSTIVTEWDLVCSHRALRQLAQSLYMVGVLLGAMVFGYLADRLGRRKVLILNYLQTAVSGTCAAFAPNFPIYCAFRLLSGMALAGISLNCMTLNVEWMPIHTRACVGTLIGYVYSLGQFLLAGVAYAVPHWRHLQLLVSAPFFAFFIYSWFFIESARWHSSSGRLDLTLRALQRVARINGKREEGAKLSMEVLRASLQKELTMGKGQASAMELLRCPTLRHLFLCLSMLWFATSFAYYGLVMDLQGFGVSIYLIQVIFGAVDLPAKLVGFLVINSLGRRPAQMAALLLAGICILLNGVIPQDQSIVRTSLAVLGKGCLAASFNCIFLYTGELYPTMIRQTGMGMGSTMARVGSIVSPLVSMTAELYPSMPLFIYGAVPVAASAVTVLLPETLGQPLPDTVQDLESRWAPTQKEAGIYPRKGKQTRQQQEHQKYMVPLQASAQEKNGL
RECORDED ENDPOINT: IC50

Value lookup for IC50; key = `COC(=O)Nc1c(N)nc(-c2nn(Cc3ccccc3F)c3ncc(F)cc23)nc1N`
> 5 µM
